The reported numbers originate from patent US11058702B2.

experiment: in vivo; details: mouse, in vivo, po, 250 mg/kg/d
recordedEndpoint: MTD at 4 days (mg/kg/day)

- chemicalStructure: "O=c1[nH]c(=O)n([C@H]2C[C@H](O)[C@@H](CO)O2)cc1I"
  recordedEndpoint: "MTD at 4 days"
  scaleUnit: "mg/kg/day"
  assayValue: 250
